Biological target: Histone deacetylase 8 (Homo sapiens)
Sequence (Q9BY41 whole entry): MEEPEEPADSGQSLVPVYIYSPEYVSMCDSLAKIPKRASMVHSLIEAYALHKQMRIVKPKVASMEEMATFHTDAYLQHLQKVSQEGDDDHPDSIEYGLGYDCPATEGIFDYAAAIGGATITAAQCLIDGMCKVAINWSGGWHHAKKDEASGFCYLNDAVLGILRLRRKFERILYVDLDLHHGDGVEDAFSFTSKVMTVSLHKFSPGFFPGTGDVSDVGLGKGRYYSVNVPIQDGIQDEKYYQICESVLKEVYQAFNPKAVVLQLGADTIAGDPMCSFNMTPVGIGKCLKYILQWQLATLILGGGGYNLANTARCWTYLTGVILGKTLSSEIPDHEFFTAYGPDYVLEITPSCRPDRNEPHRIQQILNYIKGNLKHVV
readout: IC50 (µM)

Worked set:
- structure.notation: "O=C(NO)c1ccc(-c2cccc3ccccc23)cc1"
  result.unit: "µM"
  reported.value: 0.3
- structure.notation: "O=C(NO)c1cccc(-c2ccccc2)c1"
  result.unit: "µM"
  reported.value: 20
- structure.notation: "O=C(NO)c1cccc2ccccc12"
  result.unit: "µM"
  reported.value: 14

a = O=C(/C=C/c1cccc2ccccc12)NO
b = O=C(NO)c1cccc(Oc2ccccc2)c1
Input line: Of the two listed items, which has the higher IC50? First: a Second: b Use the label to indicate which entry you chose.
Output line: b
